# SYSTEM_UNDER_TEST: Aβ40 (Homo sapiens, UniProt P05067)
# Sequence (P05067 672-711 limits assumed): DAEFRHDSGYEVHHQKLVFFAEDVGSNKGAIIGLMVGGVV
# ASSAY_METHOD_TEXT: Inhibition of Aβ40 self-aggregation (thioflavin T fluorescence, 2% HFIP)
# RUN_PARAMETERS: read-out: Aβ40 Aggregation Inhibition % at 100 μM
TEST_READOUT: inhibition at 100 µM
Don't forget the unit after the number, please.

>>> df
                 molecule          test_readout  observed_result
0  N/N=C1\C(=O)Nc2ccccc21  inhibition at 100 µM              17%

Briefly, inhibition at 100 µM measured for O=C1Nc2ccccc2C1=NNc1cccc2cccnc12 : 63%

Form: molecule = N/N=C1\C(=O)Nc2ccc([N+](=O)[O-])cc21 ; inhibition at 100 µM = 11%

Per the records, this molecule ( O=C1C(=Cc2ccc(O)cc2)Nc2ccccc21 [Compound 27, 2-(4-Hydroxybenzylidene)indolin-3-one] ) has inhibition at 100 µM equal to 69%

// recorded inhibition at 100 µM for COc1ccc2[nH]cc(C=NNc3ccc(C#N)cc3)c2c1 : 56%

Consider COc1ccc2c(c1)C(=NNC(=O)c1ccccc1)C(=O)N2 . Its measured inhibition at 100 µM is 12%

For record CC1(C)OC(=O)C(C=C2Nc3ccccc3C2=O)C(=O)O1 the listed inhibition at 100 µM is 44%

Just so you know, measured inhibition at 100 µM for CC(C)c1ccc(NN=C2C(=O)N(C3CC3)c3ccc(O)cc32)cc1 came out at 26%

The molecule listed as CC(C)c1ccc(NN=C2NC(=O)c3ccccc32)cc1 has a reported inhibition at 100 µM of 49%

Record CC(C)c1ccc(NN=Cc2[nH]c3ccc(Br)cc3c2Cl)cc1 . Reported inhibition at 100 µM: 63%

The recorded inhibition at 100 µM for COc1ccc2[nH]cc(C=NNc3ccccn3)c2c1 is 20%

For this molecule ( O=C1Nc2ccccc2C1=NNc1cccc(OCc2ccccc2)c1 ), measured inhibition at 100 µM is 45%

// inhibition at 100 µM lookup, molecule = COc1ccc2c(c1)C(=O)C(=O)N2Cc1ccccc1 , result: 52%

According to the records, this molecule O=C1Nc2ccccc2C1=NN=C1C(=O)Nc2ccccc21 displays inhibition at 100 µM of 31%

// COc1ccc2c(c1)C(=O)C(=O)N2C1CC1 : inhibition at 100 µM value = 38%

Data point: COc1ccc2c(c1)C(=O)C(=O)N2CN1CCOCC1 ; inhibition at 100 µM = 23%

Given item COc1ccc2[nH]cc(/C=N/NC(=O)c3ccc(F)cc3)c2c1 , the value recorded as its inhibition at 100 µM is 0%

Entry under test: O=C1Nc2ccccc2C1=NNc1ccc(OCc2ccccc2)cc1 . Its inhibition at 100 µM was 69%

inhibition at 100 µM reported for this molecule O=C1C(c2c(O)nc3ccccc3c2O)=Nc2ccccc21 : 17%

====

# SYSTEM_UNDER_TEST: human recombinant monoamine oxidase A (Homo sapiens, UniProt P21397)
# Sequence (P21397 whole entry): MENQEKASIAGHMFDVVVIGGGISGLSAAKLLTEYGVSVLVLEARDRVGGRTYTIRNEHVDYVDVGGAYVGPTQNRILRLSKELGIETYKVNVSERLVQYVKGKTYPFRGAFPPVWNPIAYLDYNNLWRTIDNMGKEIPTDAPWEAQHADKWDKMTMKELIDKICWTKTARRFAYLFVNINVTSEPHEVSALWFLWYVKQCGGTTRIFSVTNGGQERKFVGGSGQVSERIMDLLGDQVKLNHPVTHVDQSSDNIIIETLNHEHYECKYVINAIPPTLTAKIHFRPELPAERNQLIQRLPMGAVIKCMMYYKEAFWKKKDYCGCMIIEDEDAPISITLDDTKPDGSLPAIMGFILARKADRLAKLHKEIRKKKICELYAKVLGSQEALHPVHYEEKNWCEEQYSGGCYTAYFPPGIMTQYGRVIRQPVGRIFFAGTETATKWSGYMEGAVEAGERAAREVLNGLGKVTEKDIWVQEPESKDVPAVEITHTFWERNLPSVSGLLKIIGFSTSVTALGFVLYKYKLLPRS
# ASSAY_METHOD_TEXT: Inhibition of monoamine oxidase A (kynuramine)
# RUN_PARAMETERS: read-out: hMAO A IC50
TEST_READOUT: pIC50
Quick note: pIC50 values are minus log10 of concentrations in mol/L.

Consider the worked cases shown below.
In [3]: df
Out[3]:
                                   compound                         system_under_test  test_readout  observed_result
0  Clc1ccc(NN=Cc2c[nH]c3ccccc23)cc1 [Compound 32]  human recombinant monoamine oxidase A (Homo sapiens, UniProt P21397)         pIC50             6.47
1  COc1ccc2[nH]cc(C=NNc3ccc4ccccc4n3)c2c1 [Compound 35]  human recombinant monoamine oxidase A (Homo sapiens, UniProt P21397)         pIC50             5.42

The compound listed as O=C1Nc2ccccc2C1=NNc1ccccc1 [Compound 5, isatin 3-phenylhydrazone] has a reported pIC50 of 6.28

Input O=C1Nc2ccccc2C1=NNc1cccc2ccccc12 [Compound 23] . Output pIC50: 5.15

====

# SYSTEM_UNDER_TEST: human recombinant monoamine oxidase B (Homo sapiens, UniProt P27338)
# Construct: purchased Sigma Aldrich; host or cells: baculovirus infected insect cells (microsomes)
# Sequence (P27338 whole entry): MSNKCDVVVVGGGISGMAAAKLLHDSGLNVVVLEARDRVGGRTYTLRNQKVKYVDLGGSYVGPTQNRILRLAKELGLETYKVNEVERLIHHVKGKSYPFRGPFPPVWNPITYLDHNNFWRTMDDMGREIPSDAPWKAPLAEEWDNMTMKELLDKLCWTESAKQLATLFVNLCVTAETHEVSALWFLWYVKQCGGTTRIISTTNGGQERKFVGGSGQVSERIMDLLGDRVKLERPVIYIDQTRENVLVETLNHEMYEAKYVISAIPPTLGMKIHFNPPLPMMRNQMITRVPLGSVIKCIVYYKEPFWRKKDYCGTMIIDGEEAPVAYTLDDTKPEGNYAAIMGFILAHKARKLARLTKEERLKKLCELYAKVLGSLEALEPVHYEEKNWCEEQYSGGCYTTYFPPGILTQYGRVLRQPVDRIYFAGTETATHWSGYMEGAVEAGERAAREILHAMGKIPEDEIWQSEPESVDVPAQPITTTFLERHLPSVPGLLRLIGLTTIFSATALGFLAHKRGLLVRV
# ASSAY_METHOD_TEXT: Inhibition of monoamine oxidase B (kynuramine)
# Format: biochemical
# RUN_PARAMETERS: read-out: hMAO B % Inhib. at 10 μM
TEST_READOUT: inhibition at 10 µM (%)
State the answer as a number, implicitly in %.

Answered examples (2):
>>> print(df.to_string())
                                   molecule  observed_result
0  CN1C(=O)C(=NNc2cccc(OCc3ccccc3)c2)c2ccccc21 [Compound 7]               41
1  CC(C)c1ccc(NN=C2C(=O)N(Cc3ccccc3)c3ccc(O)cc32)cc1 [Compound 19]               46

For O=C1Nc2ccccc2C1=NNc1ccc(OCc2ccccc2)cc1 [Compound 8] the molecule record lists inhibition at 10 µM as 36

COc1ccc2c(c1)C(=NNc1ccc(C(C)C)cc1)C(=O)N2CCN(C)C [Compound 18] yielded inhibition at 10 µM of 47

Just so you know, measured inhibition at 10 µM for O=C1Nc2ccccc2C1=NNc1cccc(OCc2ccccc2)c1 [Compound 6] came out at 22

====

# SYSTEM_UNDER_TEST: human recombinant monoamine oxidase A (Homo sapiens, UniProt P21397)
# Construct: purchased Sigma Aldrich; host or cells: baculovirus infected insect cells (microsomes)
# ASSAY_METHOD_TEXT: Inhibition of monoamine oxidase A (kynuramine)
# Type: biochemical
# RUN_PARAMETERS: read-out: hMAO A % Inhib. at 10 μM
TEST_READOUT: inhibition at 10 µM (%)
Dear colleague, please return just the value in %, with no unit written.

Example compounds with recorded inhibition at 10 µM:
                              sample_smiles         test_readout  units_of_measure  observed_result
0  COc1ccc2c(c1)C(=NNc1ccc(C(C)C)cc1)C(=O)N2CCN(C)C  inhibition at 10 µM                 %               31
1    O=C1Nc2ccccc2C1=NNc1cccc(OCc2ccccc2)c1  inhibition at 10 µM                 %               23

# compound CC(C)c1ccc(NN=C2C(=O)N(Cc3ccccc3)c3ccc(O)cc32)cc1 ; its inhibition at 10 µM = 18

Field inhibition at 10 µM (entry O=C1Nc2ccccc2C1=NNc1ccc(OCc2ccccc2)cc1 ) reads 8

====

# SYSTEM_UNDER_TEST: human recombinant monoamine oxidase B (Homo sapiens)
# ASSAY_METHOD_TEXT: Inhibition of monoamine oxidase B (kynuramine)
# RUN_PARAMETERS: read-out: hMAO B IC50
Listed below: log10 IC50 values for each entry.
// units: µM (pre-log); metric: IC50; scale: log10

>>> df
                                   molecule  observed_result
0  CN1C(=O)C(=NNc2ccc(OCc3ccccc3)cc2)c2ccccc21             0.60
1          O=C1Nc2ccccc2C1=NNc1cccc2ccccc12             0.72
2    COc1ccc2[nH]cc(C=NNc3ccc4ccccc4n3)c2c1             0.81
3          Clc1ccc(NN=Cc2c[nH]c3ccccc23)cc1            -0.64
4       COc1ccc2c(c1)C(=O)C(=O)N2CCc1ccccc1             0.43
5        COc1ccc2c(c1)C(=O)C(=O)N2CN1CCOCC1             0.64

Would you kindly look at the next entry?
# lookup: O=C1Nc2ccccc2C1=NNc1ccccc1 [Compound 5, isatin 3-phenylhydrazone] on human recombinant monoamine oxidase B (Homo sapiens), log10 IC50 = 0.56

====

Each entry below lists one item and its recorded melting point value.

In [3]: df
Out[3]:
                                   compound  observed_result
0  N/N=C1\C(=O)Nc2ccc([N+](=O)[O-])cc21 [Compound 3]    217 to 219 °C
1  COc1ccc2c(c1)C(=NNC(=O)c1ccccc1)C(=O)N2 [Compound 26]         > 250 °C
2  O=C1C(c2c(O)nc3ccccc3c2O)=Nc2ccccc21 [Compound 43]      90 to 92 °C
3  O=C1C(=Cc2ccc(O)cc2)Nc2ccccc21 [Compound 27, 2-(4-Hydroxybenzylidene)indolin-3-one]         > 250 °C

For the next question, use this compound.
// melting point lookup, compound = CC(C)c1ccc(NN=C2NC(=O)c3ccccc32)cc1 [Compound 38] , result: 186 to 187 °C
